- experiment-description: Aqueous (kinetic) solubility by CAD
- Assay type: physicochemical
- test-parameters: kinetic solubility measured by CAD
reported-property: solubility (µM)

(A) Cc1ccc(S(=O)(=O)Nc2ccc(CN3CCN(C(=O)c4cccc(C#N)c4)CC3)cc2)cc1 [TCMDC-143497]
(B) COc1ccc(S(=O)(=O)Nc2ccc(CN3CCN(C(=O)c4cc(Cl)ccc4OC)CC3)cc2)cc1 [Compound 14]
input: Of A and B , which one carries the higher reported solubility? Record your answer as the label of the chosen record.
output: A

---

- experiment-description: Intrinsic clearance in mouse liver microsomes
- Format: in vitro ADME
- test-parameters: mouse liver microsomal intrinsic clearance
reported-property: Mouse CLi (mL/min/g)

(I) COc1ccc(S(=O)(=O)Nc2cnc(CN3CCN(C(=O)c4cccc(Cl)c4)CC3)nc2)cc1
(II) COc1ccc(S(=O)(=O)Nc2ccc(CN3CCN(C(=O)C4CC(O)(C(F)(F)F)C4)CC3)cc2)cc1 (stereo not shown)
(III) Cc1ccc(S(=O)(=O)Nc2ccc(NC3CCN(C(=O)c4cccc(Cl)c4)CC3)cc2)cc1
input: Method: rank(items above, key=Mouse CLi, ascending=True) List the labels according to the requested ordering.
output: I, II, III

---

- experiment-description: ChromLogD pH7.4 (chromatographic hydrophobicity index)
- Type: physicochemical
- test-parameters: pH 7.4; CHIpH7.4 × 0.0857–2; read-out: ChromlogDpH7.4
reported-property: chromatographic logD

                                   compound  numeric_result
0  Cc1ccc(S(=O)(=O)Nc2ccc(CN(C)C3CCN(C(=O)c4cccc(Cl)c4)C3)cc2)cc1 (stereo in doubt) [Compound 34]             5.7
1  CC#CC(=O)N1CCN(Cc2ccc(NS(=O)(=O)c3ccc(C)cc3)cc2)CC1 [Compound 26]             4.4

(P) COc1ccc(S(=O)(=O)Nc2ccc(CN3CCN(C(=O)c4cncc(Cl)c4)CC3)cc2)cc1 [Compound 16]
(Q) COc1ccc(S(=O)(=O)Nc2cnc(CN3CCN(C(=O)c4cccc(Cl)c4)CC3)nc2)cc1 [Compound 43]
input: Of P and Q , which one carries the higher reported chromatographic logD? Record your answer as the label of the chosen record.
output: P
(P: 4.3, Q: 2.9)

---

- experiment-description: Aqueous (kinetic) solubility by CAD
- Type: physicochemical
- test-parameters: kinetic solubility measured by CAD
reported-property: solubility (µM)

Study these solved cases before continuing.
>>> print(df.to_string())
                                   compound  reported_property  numeric_result
0  Cc1ccc(S(=O)(=O)Nc2ccc(CN3CCN(C(=O)C4CCc5ccccc54)CC3)cc2)cc1 (stereo not shown)         solubility              35
1  Cc1ccc(S(=O)(=O)Nc2ccc(CNC3CN(C(=O)c4cccc(Cl)c4)C3)cc2)cc1         solubility              70
2  Cc1ccc(S(=O)(=O)Nc2ccc(CN(C)[C@H]3CCN(C(=O)c4cccc(Cl)c4)C3)cc2)cc1         solubility              27
3  O=C(c1cccc(Cl)c1)N1CCN(Cc2ccc(NS(=O)(=O)c3ccc4c(c3)OCO4)cc2)CC1         solubility              33
4  COc1ccc(S(=O)(=O)Nc2ccc(CCN3CCN(C(=O)c4cccc(Cl)c4)CC3)cc2)cc1         solubility              35

(A) Cc1ccc(S(=O)(=O)Nc2ccc(CN[C@H]3CCN(C(=O)c4cccc(Cl)c4)C3)cc2)cc1
(B) CC#CC(=O)N1CCN(Cc2ccc(NS(=O)(=O)c3ccc(C)cc3)cc2)CC1
(C) Cc1ccc(S(=O)(=O)Nc2ccc(NC3CCN(C(=O)c4cccc(Cl)c4)CC3)cc2)cc1
input: Sort the 3 compounds by solubility; largest first, smallest last. List the labels according to the requested ordering.
output: B, A, C
